# Assay Overview: yeast display, Sf9 membrane polyspecificity reagent, FACS + sequencing; frameworks hold sequencing errors

| Residue Codes | polyreactivity (PSR sort gate) |
| --- | --- |
| QVHLVESGGGLVQAGGSLRLSCAASGSIFEAYAMGWSRQAPGKERELVAVISWRGGLTYYPDSVKGRFTISRDNAKNTLYLQMNSLKPDDTAVYYCNKAYWWHQVGLPRNYEYWGQGTQVTVSS | low polyreactivity |
| QVQLVESGGGLVQAGGSLRLSCAASGRTLDLYAMGWYRQAPGKERELVAAISWRGGRTYYADSVKGRFTISRDNAQTTVYLQMNSLKPEDTAVYYCKADYPWSVVGYDYWGQGTQVSVSS | low polyreactivity |
